study target: SARS-CoV-2 3CL protease (3CL-PR) (Severe acute respiratory syndrome coronavirus 2)
measurement description: biochemical
Type: biochemical
details: competitive pattern at < 10 min incubation (Figure S1B); read-out: Ki (3CL-PR) before longer incubation
metric: pKi
In textbook form, pKi equals minus log to base ten of the concentration in mol/L.

Incoming: Find the recorded pKi belonging to CC(C)C[C@H](NC(=O)OCc1ccccc1)C(=O)N[C@@H](CC1CCCCC1)C(=O)N[C@H](C=O)Cc1ccc[nH]c1=O [Compound 3] and report it.
Outgoing: 7.80

* * *

Test system: SARS-CoV-2 (USA_WA1/2020 isolate)
measurement description: Vero E6-based microneutralization assay of SARS-CoV-2 infection (CPE)
Type: cell-based
details: Severe acute respiratory syndrome coronavirus 2, Vero C1008, 72 h, read-out: Anti-SARS-CoV-2 Activity EC50 (μM), Vero E6 cells, 2 μM CP-100356, CPE after 3 days
metric: EC50 (µM)
Just the number please, in µM, no unit attached.

Incoming: Reported EC50 for "COc1cccc2[nH]c(C(=O)N[C@@H](CC(C)C)C(=O)N[C@H](C=O)Cc3cocn3)cc12" : what is it?
Outgoing: 0.62
